- System: CCRIS mutagenicity, Ames/micronucleus/aberration tests
- experiment: CCRIS mutagenicity studies
- applied_conditions: Test System: AMES SALMONELLA TYPHIMURIUM; Strain/Indicator: TA98; Metabolic Activation: RAT, LIVER, S-9, PHENOBARBITAL; Method: STANDARD PLATE
- From the text: The CCRIS database contains chemical records with carcinogenicity, mutagenicity, tumor promotion, and tumor inhibition test results. It was developed by the National Cancer Institute (NCI). Data are derived from studies cited in primary journals, current awareness tools, NCI reports, and other sources. Test results have been reviewed by experts in carcinogenesis and mutagenesis. CCRIS provides historical information from the years 1985 - 2011. It is no longer updated. […]
Activity calls are given as the source filed them. How the calls were made is not given here.
Labels: yes (1) = active, no (0) = inactive

>>> group("c1ccc(-c2ccccn2)nc1")
"yes (1)"
>>> group("C[n+]1ccc(-c2ccccn2)cc1")
"yes (1)"
>>> group("COc1cc2c(c3oc4cccc(OC(C)=O)c4c(=O)c13)C1C=COC1O2 (stereo not given)")
"no (0)"
>>> group("CC(=O)Nc1ccc2c(c1)[nH]c1ccccc12")
"yes (1)"
>>> group("COc1cccc2c1ccc1c(C(=O)O)cc3c(c12)OCO3")
"no (0)"
>>> group("c1ccc2c(c1)ccc1[nH]c3ccc4ccccc4c3c12")
"no (0)"
>>> group("Nc1c(N=Nc2ccc([N+](=O)[O-])cc2)c(S(=O)(=O)O)cc2cc(S(=O)(=O)O)c(N=Nc3ccccc3)c(O)c12")
"yes (1)"
>>> group("COc1c(OC)c2occc2c2oc(=O)ccc12")
"no (0)"
>>> group("N=C(N)c1ccc2cc(C(=N)N)[nH]c2c1")
"no (0)"
>>> group("C[C@@H]1C[C@H]2[C@@H]3CCC4=CC(=O)C=C[C@]4(C)[C@@]3(F)[C@@H](O)C[C@]2(C)[C@@]1(O)C(=O)CO")
"no (0)"
>>> group("COc1cccc2c1cc1c3c(cc4c(c32)OCO4)C(=O)N1")
"no (0)"
>>> group("C[C@@H]1CC[C@@]2(OC1)O[C@H]1C[C@H]3[C@@H]4CC=C5C[C@@H](O[C@@H]6O[C@H](CO)[C@@H](O)[C@H](O[C@@H]7O[C@H](CO)[C@@H](O)[C@H](O)[C@H]7O)[C@H]6O[C@@H]6O[C@@H](C)[C@H](O)[C@@H](O)[C@H]6O)CC[C@]5(C)[C@H]4CC[C@]3(C)[C@H]1[C@@H]2C")
"no (0)"
>>> group("COc1cc(OC)c2nc3occc3c(OC)c2c1")
"yes (1)"
>>> group("O=c1c2c(O)cccc2oc2c3c(cc(O)c12)O[C@H]1OC=C[C@@H]31")
"no (0)"
>>> group("COc1cc(O)c2c(=O)c3c(OC)cc4c(c3oc2c1OC)C1CCOC1O4 (stereo not given)")
"no (0)"
